Biological target: firefly luciferase, Photinus pyralis (FLuc) (Photinus pyralis, UniProt P08659)
Sequence (P08659 whole entry): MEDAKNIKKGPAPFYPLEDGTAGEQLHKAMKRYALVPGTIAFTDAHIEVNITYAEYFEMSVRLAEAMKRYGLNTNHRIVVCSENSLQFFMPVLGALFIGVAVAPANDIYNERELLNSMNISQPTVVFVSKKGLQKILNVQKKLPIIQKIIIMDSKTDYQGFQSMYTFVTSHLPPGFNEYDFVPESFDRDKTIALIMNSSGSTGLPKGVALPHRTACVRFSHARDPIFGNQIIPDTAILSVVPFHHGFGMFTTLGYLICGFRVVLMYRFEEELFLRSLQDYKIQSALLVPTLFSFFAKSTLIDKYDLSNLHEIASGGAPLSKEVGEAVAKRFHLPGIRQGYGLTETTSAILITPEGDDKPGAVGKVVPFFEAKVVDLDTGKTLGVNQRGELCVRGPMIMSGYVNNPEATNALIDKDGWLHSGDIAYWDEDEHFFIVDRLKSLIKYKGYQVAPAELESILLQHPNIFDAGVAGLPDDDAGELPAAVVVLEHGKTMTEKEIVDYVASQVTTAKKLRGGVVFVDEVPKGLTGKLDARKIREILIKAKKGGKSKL
Test: biochemical
Type: biochemical
Settings: response relative to PTC124 control inhibitor; negative = inhibition; read-out: FLuc Parameters Efficacy
Measured Parameter: Emax (%)

INSERT INTO measurements (molecule, val) VALUES
  ('COc1cc(Nc2ncc(-c3ccccc3)o2)cc(OC)c1 [GW631581B]', 88.5),
  ('C/C(Nc1ccc(S(N)(=O)=O)cc1)=C1/C(=O)Nc2ccccc21 [GW335962X]', 68.8),
  ('CCn1c(-c2nonc2N)nc2cnc(Oc3cccc(NC(=O)c4ccc(N(C)C)cc4)c3)cc21 [GSK248233A]', 98.9),
  ('COc1cc(/C=N/Nc2ncnc3[nH]ncc23)ccc1O [GW578748X]', 82.3),
  ('c1ccc(Nc2ncc(-c3ccccc3)o2)cc1 [GW549390X]', 98.6),
  ('O=C1Nc2ccccc2/C1=C/Nc1ccc2[nH]c(=O)[nH]c2c1 [GW284408X]', 37.9),
  ('N#Cc1c(NC(=O)c2ccccc2F)sc2c1CCCC2 [GW572738X]', 82.6),
  ('Cc1cccc(Nc2ncc(-c3ccccc3)o2)c1 [GW632046X]', 104),
  ('Cc1ccc(Nc2ccnc(Nc3cccc(C(N)=O)c3)n2)cc1O [GW575808A]', 106),
  ('c1cc(-c2cnn3nc(N4CCOCC4)ccc23)nc(NC2CC2)n1 [GW708336X]', 108),
  ('CN(c1ccc(NC(=O)Nc2c(Cl)cccc2Cl)cc1)c1ccnc(Nc2cccc(CS(C)(=O)=O)c2)n1 [GW809897X]', 109);

Hello, the source for this data is paper PMC3591448, in case you need it.
